systemName: T1, Human IL-13 with an Fc-tag (human, UniProt P35225 35-146, limits assumed)
T1 construct: Immobilized on CM5 chip (about 5000 RU); also called Interleukin-13; not shown: Fc-tag
T1 sequence (P35225 35-146 limits assumed): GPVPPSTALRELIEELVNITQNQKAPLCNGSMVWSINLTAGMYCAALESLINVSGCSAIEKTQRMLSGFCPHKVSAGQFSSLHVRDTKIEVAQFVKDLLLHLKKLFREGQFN
test: SPR, BIAcore 8K plus, human IL-13-Fc immobilized on CM5, peptide as analyte, 25 C
Square brackets hold non-standard residues; d marks the D form.
reportedMetric: Kd (µM)

[
  {
    "binder": "cyclo([dR]L[dW]W[dT]EP) (SMILES CC(C)C[C@@H]1NC(=O)[C@@H](CCCNC(=N)N)NC(=O)[C@@H]2CCCN2C(=O)[C@H](CCC(=O)O)NC(=O)[C@@H]([C@H](C)O)NC(=O)[C@H](Cc2c[nH]c3ccccc23)NC(=O)[C@@H](Cc2c[nH]c3ccccc23)NC1=O) [Compound 9]",
    "unitsLabel": "µM",
    "recordedNumber": 337
  }
]

a. cyclo([dL]REPWMP) (SMILES CSCC[C@@H]1NC(=O)[C@H](Cc2c[nH]c3ccccc23)NC(=O)[C@@H]2CCCN2C(=O)[C@H](CCC(=O)O)NC(=O)[C@H](CCCNC(=N)N)NC(=O)[C@@H](CC(C)C)NC(=O)[C@@H]2CCCN2C1=O) [Compound 8]
b. cyclo(RE[dV]W[dP][dP]) (SMILES CC(C)[C@H]1NC(=O)[C@H](CCC(=O)O)NC(=O)[C@H](CCCNC(=N)N)NC(=O)[C@H]2CCCN2C(=O)[C@H]2CCCN2C(=O)[C@H](Cc2c[nH]c3ccccc23)NC1=O) [Compound 4]
Prompt: // returns a or b , whichever has the lower Kd Output the label that corresponds to your choice.
Completion: b
